test system: CCRIS mutagenicity, Ames/micronucleus/aberration tests; assay: CCRIS mutagenicity studies; details: Test System: AMES SALMONELLA TYPHIMURIUM; Strain/Indicator: TA100; Metabolic Activation: HAMSTER, LIVER, S-9, AROCLOR 1254 (10%); Method: PREINCUBATION
Activity calls are given as the source filed them. No rule for the calls is given here.
measure.name: mutagenic call

[[record]]
compound = "O=C=Nc1ccc(Cc2ccc(N=C=O)cc2)cc1"
target = "CCRIS mutagenicity, Ames/micronucleus/aberration tests"
measure_name = "mutagenic call"
observed_result = "inactive; negative"

[[record]]
compound = "S=[Se]"
target = "CCRIS mutagenicity, Ames/micronucleus/aberration tests"
measure_name = "mutagenic call"
observed_result = "active; positive"

[[record]]
compound = "Nc1cccc(N)c1"
target = "CCRIS mutagenicity, Ames/micronucleus/aberration tests"
measure_name = "mutagenic call"
observed_result = "active; positive"

[[record]]
compound = "CCOP(=O)(NC(C)C)Oc1ccc(SC)c(C)c1 (stereo not given)"
target = "CCRIS mutagenicity, Ames/micronucleus/aberration tests"
measure_name = "mutagenic call"
observed_result = "inactive; negative"

[[record]]
compound = "CC(O)CNCC(C)O (stereo not given)"
target = "CCRIS mutagenicity, Ames/micronucleus/aberration tests"
measure_name = "mutagenic call"
observed_result = "inactive; negative"

[[record]]
compound = "OC/C(Br)=C(\\Br)CO"
target = "CCRIS mutagenicity, Ames/micronucleus/aberration tests"
measure_name = "mutagenic call"
observed_result = "active; positive"

[[record]]
compound = "CCCCCCCCCCCC(=O)[O][Sn]([CH2]CCC)([CH2]CCC)[O]C(=O)CCCCCCCCCCC"
target = "CCRIS mutagenicity, Ames/micronucleus/aberration tests"
measure_name = "mutagenic call"
observed_result = "inactive; negative"

[[record]]
compound = "COc1c(C(C)(C)C)cc([N+](=O)[O-])c(C)c1[N+](=O)[O-]"
target = "CCRIS mutagenicity, Ames/micronucleus/aberration tests"
measure_name = "mutagenic call"
observed_result = "inactive; negative"

[[record]]
compound = "Cc1ccccc1OP(=O)(Oc1ccccc1)Oc1ccccc1"
target = "CCRIS mutagenicity, Ames/micronucleus/aberration tests"
measure_name = "mutagenic call"
observed_result = "inactive; negative"

[[record]]
compound = "COC(=O)c1ccc(C(=O)OC)cc1"
target = "CCRIS mutagenicity, Ames/micronucleus/aberration tests"
measure_name = "mutagenic call"
observed_result = "inactive; negative"

[[record]]
compound = "CC(=O)c1ccccc1[N+](=O)[O-]"
target = "CCRIS mutagenicity, Ames/micronucleus/aberration tests"
measure_name = "mutagenic call"
observed_result = "inactive; negative"

[[record]]
compound = "Nc1c(Cl)cc(Cl)cc1Cl"
target = "CCRIS mutagenicity, Ames/micronucleus/aberration tests"
measure_name = "mutagenic call"
observed_result = "inactive; negative"

[[record]]
compound = "CC(=O)[O][Hg][c]1ccccc1"
target = "CCRIS mutagenicity, Ames/micronucleus/aberration tests"
measure_name = "mutagenic call"
observed_result = "inactive; negative"

[[record]]
compound = "NCCNCCO"
target = "CCRIS mutagenicity, Ames/micronucleus/aberration tests"
measure_name = "mutagenic call"
observed_result = "inactive; negative"

[[record]]
compound = "CCCCC(CC)COC(=O)CCCCCCCCC(=O)OCC(CC)CCCC (stereo not given)"
target = "CCRIS mutagenicity, Ames/micronucleus/aberration tests"
measure_name = "mutagenic call"
observed_result = "inactive; negative"

[[record]]
compound = "c1cnc2c(c1)ccc1cccnc12"
target = "CCRIS mutagenicity, Ames/micronucleus/aberration tests"
measure_name = "mutagenic call"
observed_result = "inactive; negative"

[[record]]
compound = "C1=CC2C3C=CC(C3)C2C1 (stereo not given)"
target = "CCRIS mutagenicity, Ames/micronucleus/aberration tests"
measure_name = "mutagenic call"
observed_result = "inactive; negative"

[[record]]
compound = "O=C1c2c(Br)c(Br)c(Br)c(Br)c2C(=O)N1CCN1C(=O)c2c(Br)c(Br)c(Br)c(Br)c2C1=O"
target = "CCRIS mutagenicity, Ames/micronucleus/aberration tests"
measure_name = "mutagenic call"
observed_result = "inactive; negative"

[[record]]
compound = "NCCCNCCCN"
target = "CCRIS mutagenicity, Ames/micronucleus/aberration tests"
measure_name = "mutagenic call"
observed_result = "inactive; negative"

[[record]]
compound = "CC(=O)C(N=Nc1ccc(-c2ccc(N=NC(C(C)=O)C(=O)Nc3ccccc3)c(Cl)c2)cc1Cl)C(=O)Nc1ccccc1 (stereo not given)"
target = "CCRIS mutagenicity, Ames/micronucleus/aberration tests"
measure_name = "mutagenic call"
observed_result = "inactive; negative"

[[record]]
compound = "COC[CH2][Hg][Cl]"
target = "CCRIS mutagenicity, Ames/micronucleus/aberration tests"
measure_name = "mutagenic call"
observed_result = "inactive; negative"

[[record]]
compound = "Cc1ccc(S(=O)(=O)O)cc1C"
target = "CCRIS mutagenicity, Ames/micronucleus/aberration tests"
measure_name = "mutagenic call"
observed_result = "inactive; negative"

[[record]]
compound = "CCCCC(CC)CO (stereo not given)"
target = "CCRIS mutagenicity, Ames/micronucleus/aberration tests"
measure_name = "mutagenic call"
observed_result = "inactive; negative"

[[record]]
compound = "C=CC(=O)OCC(Br)CBr (stereo not given)"
target = "CCRIS mutagenicity, Ames/micronucleus/aberration tests"
measure_name = "mutagenic call"
observed_result = "active; positive"

[[record]]
compound = "CCCCCCC(=O)O"
target = "CCRIS mutagenicity, Ames/micronucleus/aberration tests"
measure_name = "mutagenic call"
observed_result = "inactive; negative"

[[record]]
compound = "NC(=O)N/N=C/c1ccc([N+](=O)[O-])o1"
target = "CCRIS mutagenicity, Ames/micronucleus/aberration tests"
measure_name = "mutagenic call"
observed_result = "active; positive"

[[record]]
compound = "N#CC(O)c1ccccc1 (stereo not given)"
target = "CCRIS mutagenicity, Ames/micronucleus/aberration tests"
measure_name = "mutagenic call"
observed_result = "inactive; negative"

[[record]]
compound = "Oc1c(Br)cc(Br)cc1Br"
target = "CCRIS mutagenicity, Ames/micronucleus/aberration tests"
measure_name = "mutagenic call"
observed_result = "inactive; negative"

[[record]]
compound = "O=[N+]([O-])c1ccccc1Nc1ccccc1"
target = "CCRIS mutagenicity, Ames/micronucleus/aberration tests"
measure_name = "mutagenic call"
observed_result = "inactive; negative"

[[record]]
compound = "CC1CCCC1"
target = "CCRIS mutagenicity, Ames/micronucleus/aberration tests"
measure_name = "mutagenic call"
observed_result = "inactive; negative"

